Reference source for all entries: patent US8927500B2

Parameter: pKi. Scope: all listed entries.
- system: UniProt:O15151
- Sequence (O15151 1-125): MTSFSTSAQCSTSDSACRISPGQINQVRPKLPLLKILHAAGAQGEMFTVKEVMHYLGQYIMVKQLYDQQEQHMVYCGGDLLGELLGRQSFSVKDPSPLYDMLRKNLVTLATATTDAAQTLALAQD
- run_description: Competitive fluorescence polarization assay for MDMX
- Type: binding
- experimental_context: competitive FP assay, read-out: Ki (MDMX)
pKi: −log10 of the molar value. Where a SMILES comes first, the peptide text is derived from it. Bridges are numbered along the chain shown (N, C = ends). [ ]: non-standard residue; d: D form. R8 = C=CCCCCCC[C@@](C)(N)C(=O)O; S5 = C=CCCC[C@](C)(N)C(=O)O

Consider the worked cases shown below.
{"compound": "CC(=O)N[C@@H](CCC(=O)O)C(=O)N[C@H](C(=O)N[C@@H](Cc1ccccc1)C(=O)N[C@]1(C)CCCCCCC=CCCC[C@@](C)(C(=O)N[C@@H](CO)C(=O)N[C@@H](CC(N)=O)C(=O)N[C@H](C)C(N)=O)NC(=O)[C@H](CC(C)C)NC(=O)[C@H](CCC(N)=O)NC(=O)[C@H](C)NC(=O)[C@H](Cc2c[nH]c3ccccc23)NC(=O)[C@H](Cc2ccc(O)cc2)NC(=O)[C@H](C(C)C)NC1=O)[C@@H](C)O [compound 136] (Ac-ETF[R8]VYWAQL[S5]SN[dA]-NH2; staple 4-11)", "endpoint_label": "pKi", "test_result": "7.00 to 8.00"}
{"compound": "CC[C@H](C)[C@H](NC(=O)[C@H](C)NC(=O)[C@H](C)NC(=O)[C@]1(C)CCCC=CCCCCCC[C@@](C)(NC(=O)[C@H](Cc2ccccc2)NC(=O)[C@@H](NC(=O)[C@H](CC(C)C)NC(C)=O)[C@@H](C)O)C(=O)N[C@@H](C)C(=O)N[C@@H](Cc2ccc(O)cc2)C(=O)N[C@@H](Cc2c[nH]c3ccccc23)C(=O)N[C@@H](C)C(=O)N[C@@H](C)C(=O)N[C@@H](CC(C)C)C(=O)N1)C(=O)N[C@@H](C(N)=O)C(C)C (single isomer, unassigned) [compound 77]", "endpoint_label": "pKi", "test_result": "7.00 to 8.00"}
{"compound": "CC(=O)N[C@@H](CC(C)C)C(=O)N[C@H](C(=O)N[C@@H](Cc1ccccc1)C(=O)N[C@]1(C)CCCCCCC=CCCC[C@@](C)(C(=O)N[C@@H](CO)C(=O)N[C@@H](C)C(=O)N[C@@H](CO)C(N)=O)NC(=O)[C@H](CC(C)C)NC(=O)[C@H](CCC(N)=O)NC(=O)[C@H](C)NC(=O)[C@H](Cc2c[nH]c3ccccc23)NC(=O)[C@H](Cc2ccc(O)cc2)NC(=O)[C@H](C(C)C)NC1=O)[C@@H](C)O (single isomer, unassigned) [compound 144]", "endpoint_label": "pKi", "test_result": "7.00 to 8.00"}
{"compound": "CC(=O)N[C@@H](CC(C)C)C(=O)N[C@H](C(=O)N[C@@H](Cc1ccccc1)C(=O)N[C@]1(C)CCCCCCC=CCCC[C@@](C)(C(=O)N[C@@H](C)C(=O)N[C@@H](C)C(=O)N[C@@H](C)C(=O)N[C@@H](C)C(=O)N[C@H](C)C(N)=O)NC(=O)[C@H](CCC(C)C)NC(=O)[C@H](CCC(N)=O)NC(=O)[C@H](C)NC(=O)[C@H](Cc2c[nH]c3ccccc23)NC(=O)[C@H](Cc2ccc(O)cc2)NC(=O)[C@H](C)NC1=O)[C@@H](C)O (single isomer, unassigned) [compound 314]", "endpoint_label": "pKi", "test_result": "> 8.00"}

Next compound, pKi to be filled in.
Give me measured pKi, please, for this compound: CC(=O)N[C@@H](CC(C)C)C(=O)N[C@H](C(=O)N[C@@H](Cc1ccccc1)C(=O)N[C@]1(C)CCCCCCC=CCCC[C@@](C)(C(=O)N[C@@H](CO)C(=O)N[C@@H](C)C(=O)N[C@@H](C)C(N)=O)NC(=O)[C@H](CC(C)C)NC(=O)[C@H](CCC(N)=O)NC(=O)[C@H](C)NC(=O)[C@H](Cc2c[nH]c3ccccc23)NC(=O)[C@H](Cc2ccc(C(=O)O)cc2)NC(=O)[C@H](C)NC1=O)[C@@H](C)O (single isomer, unassigned) [compound 169]
7.00 to 8.00
